// IC50 collected for MERS-CoV M^pro (Middle East respiratory syndrome-related coronavirus)
readoutKind: IC50

molecule="COc1ccc(CNC(=O)C(=O)[C@H](C[C@@H]2CCNC2=O)NC(=O)[C@@H]2CCCN2C(=O)COc2ccc(Cl)cc2Cl)c(OC)c1 [9f]" observedvalue="> 30 µM"
molecule="O=C(NCc1ccccc1C(F)(F)F)C(=O)[C@H](C[C@@H]1CCNC1=O)NC(=O)[C@@H]1CCCN1C(=O)COc1ccc(Cl)cc1Cl [9h]" observedvalue="> 30 µM"
